// melting point lookup, one value per entry

Observe how each entry below is paired with its result.
CC1=C(/C=C/C(C)=C/C=C/C(C)=C/C(=O)Nc2ccc(O)c(Cl)c2)C(C)(C)CCC1 [Compound 11, N-(3′-chloro-4′-hydroxyphenyl)retinamide]    168 to 169 °C
CCS(=O)(=O)c1ccc(NC(=O)/C=C(C)/C=C/C=C(C)/C=C/C2=C(C)CCCC2(C)C)c(O)c1    145 to 147 °C
CC1=C(/C=C/C(C)=C/C=C/C(C)=C/C(=O)Nc2cc(Cl)ccc2O)C(C)(C)CCC1 [Compound 12, N-(5′-chloro-2′-hydroxyphenyl)retinamide]    115 to 118 °C
CC1=C(/C=C/C(C)=C/C=C/C(C)=C/C(=O)Nc2ccc(C)c(O)c2)C(C)(C)CCC1 [Compound 7, N-(3′-hydroxy-4′-methylphenyl)retinamide]    172.5 to 175 °C
CC1=C(/C=C/C(C)=C/C=C/C(C)=C/C(=O)Nc2cc(Cl)c(O)c(Cl)c2)C(C)(C)CCC1    139 to 140 °C
CC1=C(/C=C/C(C)=C/C=C/C(C)=C/C(=O)Nc2ccc(O)cc2Cl)C(C)(C)CCC1 [Compound 10, N-(2′-chloro-4′-hydroxyphenyl)retinamide]    131.5 to 132.5 °C

(Q) For CC1=C(/C=C/C(C)=C/C=C/C(C)=C/C(=O)Nc2cc(Cl)c(C)c(Cl)c2O)C(C)(C)CCC1 , what is its reported melting point?
(A) 140 to 142 °C

(Q) For CC1=C(/C=C/C(C)=C/C=C/C(C)=C/C(=O)Nc2cccc(O)c2C)C(C)(C)CCC1 [Compound 8, N-(3′-hydroxy-2′-methylphenyl)retinamide] , what is its reported melting point?
(A) 176 to 176.5 °C

(Q) For CC1=C(/C=C/C(C)=C/C=C/C(C)=C/C(=O)Nc2ccc([N+](=O)[O-])cc2O)C(C)(C)CCC1 [Compound 18, N-(2′-hydroxy-4′-nitrophenyl)retinamide] , what is its reported melting point?
(A) 152 to 153.5 °C

(Q) For CC1=C(/C=C/C(C)=C/C=C/C(C)=C/C(=O)Nc2ccc(O)c([N+](=O)[O-])c2)C(C)(C)CCC1 [Compound 17, N-(4′-hydroxy-3′-nitrophenyl)retinamide] , what is its reported melting point?
(A) 157 to 159.5 °C

(Q) For CC1=C(/C=C/C(C)=C/C=C/C(C)=C/C(=O)Nc2cccc(CO)c2)C(C)(C)CCC1 [Compound 32, N-(3′ hydroxymethylphenyl)retinamide] , what is its reported melting point?
(A) 118 to 120.5 °C

(Q) For CC1=C(/C=C/C(C)=C/C=C/C(C)=C/C(=O)Nc2ccccc2CO)C(C)(C)CCC1 [Compound 31, N-(2′-hydroxymethylphenyl)retinamide] , what is its reported melting point?
(A) 72 to 74 °C

(Q) For COc1ccc(NC(=O)/C=C(C)/C=C/C=C(C)/C=C/C2=C(C)CCCC2(C)C)cc1O , what is its reported melting point?
(A) 119 to 124 °C

----------
// melting point lookup, one value per entry

Observe how each entry below is paired with its result.
CC1=C(/C=C/C(C)=C/C=C/C(C)=C/C(=O)Nc2cc(C)ccc2O)C(C)(C)CCC1 [Compound 4, N-(2′-hydroxy-5′-methylphenyl)retinamide]    98 to 100 °C
CC1=C(/C=C/C(C)=C/C=C/C(C)=C/C(=O)Nc2ccc(O)cc2C)C(C)(C)CCC1 [Compound 1, N-(2′-methyl-4′-hydroxyphenyl)retinamide]    141 to 145 °C
CC1=C(/C=C/C(C)=C/C=C/C(C)=C/C(=O)Nc2ccc(C)cc2O)C(C)(C)CCC1 [Compound 3, N-(2′-hydroxy-4′-methylphenyl)retinamide]    146 to 147.5 °C
CC1=C(/C=C/C(C)=C/C=C/C(C)=C/C(=O)Nc2cc([N+](=O)[O-])ccc2O)C(C)(C)CCC1 [Compound 19, N-(2′-hydroxy-5′-nitrophenyl)retinamide]    151.5 to 153 °C
CC1=C(/C=C/C(C)=C/C=C/C(C)=C/C(=O)Nc2ccc(O)cc2[N+](=O)[O-])C(C)(C)CCC1 [Compound 16, N-(4′-hydroxy-2′-nitrophenyl)retinamide]    112 to 117 °C

Next compound, please.
(Q) For CC1=C(/C=C/C(C)=C/C=C/C(C)=C/C(=O)Nc2cc(C(C)(C)C)ccc2O)C(C)(C)CCC1 [Compound 5] , what is its reported melting point?
(A) 144 to 146.5 °C

Measured values drawn from patent US7550510B2 for this set.
